Where do the numbers come from? From ChEMBL document CHEMBL2417411.

- assay-explanation: cells
- test-context: Homo sapiens, QGY7701, 48 h
- Description: Cytotoxicity against human QGY7701 cells after 48 hrs by MTT assay
experimental-readout: pIC50
Please keep in mind that pIC50 is minus log10 of the molar concentration; only the number is needed.

COc1ccc(C(=O)c2ccc(=O)n(-c3ccccc3C)c2)c(OC(=O)c2ccc(F)cc2)c1: 5.02
COc1ccc(C(=O)c2ccc(=O)n(-c3ccccc3C)c2)c(OC(=O)OCc2ccccc2)c1: 5.36
COc1ccc(C(=O)c2ccc(=O)n(-c3ccccc3C)c2)c(OCc2cn(Cc3ccc(Cl)cc3Cl)nn2)c1: 5.19
COc1ccc(C(=O)c2ccc(=O)n(-c3ccccc3C)c2)c(OCc2cn(Cc3ccccc3Cl)nn2)c1: 5.33

Quick note, pIC50 for `COc1ccc(C(=O)c2ccc(=O)n(-c3ccccc3C)c2)c(OCc2cn(Cc3ccc(F)cc3)nn2)c1` landed at 5.26
